assayed-system: T1, human TfR extracellular domain with N-terminal His tag (human, UniProt P02786 89-760)
T1 construct: Biotinylated in some assays; also called huTfR; HuTfR
T1 sequence (P02786 89-760 G142S): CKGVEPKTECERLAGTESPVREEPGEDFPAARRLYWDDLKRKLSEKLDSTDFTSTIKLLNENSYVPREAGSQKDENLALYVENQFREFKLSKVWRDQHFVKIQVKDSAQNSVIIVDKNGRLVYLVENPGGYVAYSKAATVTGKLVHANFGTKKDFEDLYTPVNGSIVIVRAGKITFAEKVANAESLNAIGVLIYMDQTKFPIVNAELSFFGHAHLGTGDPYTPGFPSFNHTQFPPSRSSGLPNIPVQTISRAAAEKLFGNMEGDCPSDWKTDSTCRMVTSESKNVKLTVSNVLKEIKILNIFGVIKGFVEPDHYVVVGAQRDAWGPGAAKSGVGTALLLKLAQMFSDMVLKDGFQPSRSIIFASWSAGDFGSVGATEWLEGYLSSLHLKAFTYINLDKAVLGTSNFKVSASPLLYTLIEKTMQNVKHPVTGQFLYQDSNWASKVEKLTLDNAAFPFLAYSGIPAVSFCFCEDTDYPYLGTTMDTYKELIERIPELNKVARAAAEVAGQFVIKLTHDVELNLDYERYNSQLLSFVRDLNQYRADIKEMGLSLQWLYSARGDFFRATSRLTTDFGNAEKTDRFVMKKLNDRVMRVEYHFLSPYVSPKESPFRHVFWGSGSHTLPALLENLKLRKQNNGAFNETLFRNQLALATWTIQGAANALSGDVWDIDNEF
assay-procedure: SPR, IgG;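 further: His-tagged TfR captured via immobilized anti-His antibody on a CM5 chip, antibody injected in 3-fold dilution series by single cycle kinetics, 1:1 Langmuir or steady-state fit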
pKd: −log10 of the molar value.

binder: hu7A4.v5 (antibody, V domains shown, IgG) VH: EVQLVQSGAEVKKPGASVKVSCKASGYTFTDYAMHWVRQAPGQGLEWMGGISTYFGRTNYNQKFKGRVTMTRDTSISTAYMELSRLRSDDTAVYYCARGLSGNYVMDYWGQGTTVTVSS VL: DIVMTQSPDSLAVSLGERATINCRASESVDSYGNSFMHWYQQKPGQPPKLLIYRASNLESGIPDRFSGSGSGTDFTLTISSLQAEDVAVYYCQQSNEGPPTFGQGTKLEIK
pKd: 9.44
--
binder: hu7A4.v2 (antibody, V domains shown, IgG) VH: EVQLVQSGAEVKKPGASVKVSCKGSGYTFTDYAMHWVRQAPGQGLEWMGGISTYFGRTNYNQKFKGRVTMTRDTSISTAYMELSRLRSDDTAVYYCARGLSGNYVMDYWGQGTTVTVSS VL: DIVMTQSPDSLAVSLGERATINCRASESVDSYGNSFMHWYQQKPGQPPKLLIYRASNLESGVPDRFSGSGSGTDFTLTISSLQAEDVAVYYCQQSNEGPPTFGQGTKLEIK
pKd: 9.63
